This collection of values is drawn from ChEMBL document CHEMBL2331505.

Recorded IC50 values for a group of molecules are listed next.
# SYSTEM: High affinity cGMP-specific 3',5'-cyclic phosphodiesterase 9A (Homo sapiens, UniProt O76083)
# Sequence (O76083 whole entry): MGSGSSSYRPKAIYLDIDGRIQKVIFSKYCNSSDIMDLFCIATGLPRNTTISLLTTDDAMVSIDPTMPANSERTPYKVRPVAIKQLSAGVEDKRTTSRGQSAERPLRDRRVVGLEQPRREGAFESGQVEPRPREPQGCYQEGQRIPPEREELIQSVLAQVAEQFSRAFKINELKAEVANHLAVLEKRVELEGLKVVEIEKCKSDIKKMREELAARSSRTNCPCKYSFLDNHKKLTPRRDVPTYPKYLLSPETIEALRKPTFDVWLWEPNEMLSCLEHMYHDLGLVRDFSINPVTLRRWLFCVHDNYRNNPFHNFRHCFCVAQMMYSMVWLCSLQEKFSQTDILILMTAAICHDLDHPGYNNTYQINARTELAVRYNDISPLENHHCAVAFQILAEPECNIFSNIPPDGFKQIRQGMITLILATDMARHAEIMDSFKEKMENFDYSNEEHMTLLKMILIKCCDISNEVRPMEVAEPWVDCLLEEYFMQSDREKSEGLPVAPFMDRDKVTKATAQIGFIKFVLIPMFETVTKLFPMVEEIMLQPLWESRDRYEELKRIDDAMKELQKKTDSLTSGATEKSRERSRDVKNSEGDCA
PROPERTY MEASURED: IC50

                               input_smiles   result
0  CN1CC(=O)N2[C@H](c3ccc4c(c3)OCO4)c3[nH]c4ccccc4c3C[C@@H]2C1=O  > 10 µM
1  COc1ccc(CNc2c(CO)cnc3c(N(C)C)cc(C#N)cc23)cc1Cl  > 10 µM
2  COc1ccc(CNc2c(CO)cnc3c(C4CC4)cc(C#N)cc23)cc1Cl  > 10 µM

----------
# METHOD SUMMARY: Cmax in mouse brain at 50 mg/kg, po
# Format: ADME, organism-based
# Design: dose 50 mg/kg, route oral
PROPERTY MEASURED: Cmax (ng/g)

>>> df
                               input_smiles  property_measured  unit_of_measurement  quantitative_readout
0  COc1ccc(CNc2c(CO)cnc3c(C4CC4)cc(C#N)cc23)cc1Cl               Cmax                 ng/g                   385

----------
# SYSTEM: cGMP-specific 3',5'-cyclic phosphodiesterase (Homo sapiens)
# METHOD SUMMARY: Inhibition of PDE5 (unknown origin) using FAM-cGMP as substrate after 60 mins by fluorescence assay
Recorded IC50 values for a group of molecules are listed next.
PROPERTY MEASURED: IC50 (nM)

>>> print(df.to_string())
                               input_smiles  quantitative_readout
0  COc1ccc(CNc2c(CO)cnc3c(N(C)C)cc(C#N)cc23)cc1Cl                   0.4
1  COc1ccc(CNc2c(CO)cnc3c(NC4CC4)cc(C#N)cc23)cc1Cl                   4.1

----------
As an illustration, consider measured IC50 for molecules on cGMP-dependent 3',5'-cyclic phosphodiesterase (Homo sapiens, UniProt O00408).
Sequence (O00408 whole entry): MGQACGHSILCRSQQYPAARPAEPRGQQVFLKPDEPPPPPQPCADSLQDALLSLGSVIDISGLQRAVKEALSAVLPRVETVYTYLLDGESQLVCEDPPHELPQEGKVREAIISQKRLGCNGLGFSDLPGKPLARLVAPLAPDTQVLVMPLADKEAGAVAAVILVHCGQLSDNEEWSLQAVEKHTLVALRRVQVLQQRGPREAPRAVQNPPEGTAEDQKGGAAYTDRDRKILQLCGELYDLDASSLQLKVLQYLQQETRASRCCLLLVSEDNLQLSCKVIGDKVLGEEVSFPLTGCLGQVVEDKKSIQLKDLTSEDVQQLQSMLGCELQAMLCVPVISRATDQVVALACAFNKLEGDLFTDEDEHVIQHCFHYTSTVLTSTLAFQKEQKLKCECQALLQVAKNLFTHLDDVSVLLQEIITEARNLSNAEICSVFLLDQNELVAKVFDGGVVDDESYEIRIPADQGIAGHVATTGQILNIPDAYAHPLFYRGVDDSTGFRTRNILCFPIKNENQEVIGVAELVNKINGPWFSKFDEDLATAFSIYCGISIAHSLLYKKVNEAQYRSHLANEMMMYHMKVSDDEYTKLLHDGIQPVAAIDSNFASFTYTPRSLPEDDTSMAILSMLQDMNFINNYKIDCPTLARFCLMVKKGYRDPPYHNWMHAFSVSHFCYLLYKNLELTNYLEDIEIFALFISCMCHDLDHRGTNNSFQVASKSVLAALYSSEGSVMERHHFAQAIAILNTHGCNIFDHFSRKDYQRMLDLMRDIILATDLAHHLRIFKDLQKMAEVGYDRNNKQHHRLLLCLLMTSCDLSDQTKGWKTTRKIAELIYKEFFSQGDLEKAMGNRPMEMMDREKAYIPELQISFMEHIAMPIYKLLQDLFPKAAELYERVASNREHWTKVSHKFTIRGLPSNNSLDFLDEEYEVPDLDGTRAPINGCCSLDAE
PROPERTY MEASURED: IC50

>>> print(df.to_string())
                               input_smiles                                    system   result
0  COc1ccc(CNc2c(CO)cnc3c(N(C)C)cc(C#N)cc23)cc1Cl  cGMP-dependent 3',5'-cyclic phosphodiesterase (Homo sapiens, UniProt O00408)  > 10 µM
1  COc1ccc(CNc2c(CO)cnc3c(C4CC4)cc(C#N)cc23)cc1Cl  cGMP-dependent 3',5'-cyclic phosphodiesterase (Homo sapiens, UniProt O00408)  > 10 µM

----------
# SYSTEM: Phosphodiesterase 8 (Homo sapiens, UniProt O95263+O60658)
# METHOD SUMMARY: Inhibition of PDE8 (unknown origin) using FAM-cAMP as substrate after 60 mins by fluorescence assay
# Format: protein assay
PROPERTY MEASURED: IC50

In [3]: df
Out[3]:
                               input_smiles  property_measured   result
0  COc1ccc(CNc2c(CO)cnc3c(N(C)C)cc(C#N)cc23)cc1Cl               IC50  > 10 µM
1  CCCc1nc(C)c2c(=O)nc(-c3cc(S(=O)(=O)N4CCN(CC)CC4)ccc3OCC)[nH]n12               IC50  > 10 µM
2  CN1CC(=O)N2[C@H](c3ccc4c(c3)OCO4)c3[nH]c4ccccc4c3C[C@@H]2C1=O               IC50  > 10 µM
3  COc1ccc(CNc2c(CO)cnc3c(C4CC4)cc(C#N)cc23)cc1Cl               IC50  > 10 µM
